Values compiled from paper PMC9316317.

Experiment: Ex vivo biodistribution in Daudi xenograft-bearing mice
Conditions: male, NOD.Cg-Rag1tm1Mom Il2rgtm1Wjl/SzJ (NRG), mouse, bone, iv, total radioactivity, Bone uptake, 1 h p.i. blocked with LY2510924, mean
Where a SMILES comes first, the peptide text is derived from it. Side-chain parts run from the residue outwards. [ ]: non-standard residue; d: D form. The star is where a group is joined. DOTA = O=C(O)CN1CCN(CC(=O)O)CCN(CC(=O)*)CCN(CC(=O)O)CC1; 2Nal = N[C@@H](Cc1ccc2ccccc2c1)C(=O)O; dNMeOrn = CN[C@H](CCCN)C(=O)O; 4Amb = NCc1ccc(C(=O)O)cc1
PARAMETER: tissue uptake at 1 h (%ID/g)
One number for each entry, in %ID/g.

Request the reported tissue uptake at 1 h associated with CN1C(=O)[C@@H](Cc2ccc(O)cc2)NC(=O)CNC(=O)[C@H](Cc2ccc3ccccc3c2)NC(=O)[C@H](CCCNC(=N)N)NC(=O)[C@H]1CCCNC(=O)c1ccc(CNC(=O)CN2CCN(CC(=O)O)CCN(CC(=O)O)CCN(CC(=O)O)CC2)cc1 [[68Ga]Ga-Pentixafor, metal not drawn] (cyclo([dY][dNMeOrn]([4Amb-DOTA])R[2Nal]G)) 0.27
